target system: human JAK1 (a.a. 837-1142)
measurement description: In vitro JAK kinase assay (HTRF, phosphorylation of a biotinylated peptide), JAK1
Format: biochemical
condition description: measured at 1 mM ATP; JAK2 IC50 / JAK1 IC50
Would you mind telling me the reported IC50 Ratio JAK2/JAK1 of each entry?
Provide a numeric answer; units are not to be included.

INPUT: Supply measured IC50 Ratio JAK2/JAK1 of N#CCC1(n2cc(-c3ncnc4[nH]ccc34)cn2)CN(C2CCN(C(=O)c3ccc(-c4cccc5ncccc45)c(F)c3)CC2)C1 [Example 129] in your reply.
OUTPUT: 7.9

INPUT: Supply measured IC50 Ratio JAK2/JAK1 of N#CCC1(n2cc(-c3ncnc4[nH]ccc34)cn2)CN(C2CCN(C(=O)c3ccc(F)c(Cl)c3)CC2)C1 [Example 34] in your reply.
OUTPUT: 6.0

INPUT: Supply measured IC50 Ratio JAK2/JAK1 of N#CCC1(n2ccc(-c3ncnc4[nH]ccc34)c2)CN(C2CCN(C(=O)c3c(F)cc(C#N)cc3F)CC2)C1 [Example 265] in your reply.
OUTPUT: 6.6

INPUT: Supply measured IC50 Ratio JAK2/JAK1 of N#CCC1(n2cc(-c3ncnc4[nH]ccc34)cn2)CN(C2CCN(C(=O)c3cc(Cl)sc3Cl)CC2)C1 [Example 30] in your reply.
OUTPUT: 2.8
